species on record: Rattus norvegicus; test: Open TG-GATES - Regimen: Single; format: toxicity, organism-based, Sprague-Dawley; set-up: regimen Single, gender Male, age 6 weeks; conditions: in vivo, po, 100 mg/kg, 9 h, tissue Plasma, route gavage, dose level Low
Consider the following compounds and their measured TC readings.

- Compound: "C[C@H](CS)C(=O)N1CCC[C@H]1C(=O)O"
  TC (mg/dL): 65.2
- Compound: "O=C(O)c1cc(/N=N/c2ccc(S(=O)(=O)Nc3ccccn3)cc2)ccc1O"
  TC (mg/dL): 83
- Compound: "CCc1cc(C(N)=S)ccn1 [ETHIONAMIDE]"
  TC (mg/dL): 53.4
- Compound: "Clc1ccccc1CN1CCc2sccc2C1"
  TC (mg/dL): 77.6
- Compound: "O=C(O)c1cn(C2CC2)c2cc(N3CCNCC3)c(F)cc2c1=O"
  TC (mg/dL): 88.4

---

Consider the following compounds and their measured GLC readings.
species on record: Rattus norvegicus; experiment: Open TG-GATES - Regimen: Single; format: toxicity, organism-based, Sprague-Dawley; parameters: regimen Single, gender Male, age 6 weeks; settings: in vivo, po, 1000 mg/kg, 3 h, tissue Plasma, route gavage, dose level High

- Compound: "Clc1ccccc1CN1CCc2sccc2C1"
  GLC (mg/dL): 196.4
- Compound: "O=C(O)c1cc(/N=N/c2ccc(S(=O)(=O)Nc3ccccn3)cc2)ccc1O"
  GLC (mg/dL): 196.6
- Compound: "O=C(O)c1cn(C2CC2)c2cc(N3CCNCC3)c(F)cc2c1=O"
  GLC (mg/dL): 191.2
- Compound: "CCc1cc(C(N)=S)ccn1 [ETHIONAMIDE]"
  GLC (mg/dL): 202.8
- Compound: "C[C@H](CS)C(=O)N1CCC[C@H]1C(=O)O"
  GLC (mg/dL): 213

---

species on record: Rattus norvegicus; test: Open TG-GATES - Regimen: Single; assay type: toxicity, organism-based, Sprague-Dawley; parameters: regimen Single, gender Male, age 6 weeks; details: in vivo, po, 300 mg/kg, 24 h, tissue Plasma, route gavage, dose level Middle
// returns label 0 unless AST is strictly below 70 IU/L, in which case label 1

- Compound: "CCc1cc(C(N)=S)ccn1 [ETHIONAMIDE]"
  Group label: "label 0"
- Compound: "C[C@H](CS)C(=O)N1CCC[C@H]1C(=O)O"
  Group label: "label 1"
- Compound: "O=C(O)c1cc(/N=N/c2ccc(S(=O)(=O)Nc3ccccn3)cc2)ccc1O"
  Group label: "label 1"
- Compound: "Clc1ccccc1CN1CCc2sccc2C1"
  Group label: "label 1"

---

species on record: Rattus norvegicus; assay: Open TG-GATES - Regimen: Single; assay type: toxicity, organism-based, Sprague-Dawley; design: regimen Single, gender Male, age 6 weeks; conditions: in vivo, po, 0 mg/kg, 24 h, tissue Plasma, route gavage, dose level Control
Consider the following molecules and their measured TC readings.

- Molecule: "COc1cc2c(c3oc(=O)c4c(c13)CCC4=O)[C@@H]1C=CO[C@@H]1O2 [AFLATOXIN]"
  Unit of measurement: "mg/dL"
  TC: 76.2
- Molecule: "O=C(O)c1cc(/N=N/c2ccc(S(=O)(=O)Nc3ccccn3)cc2)ccc1O [SULFASALAZINE]"
  Unit of measurement: "mg/dL"
  TC: 89.4
- Molecule: "Cn1c(=O)c2[nH]cnc2n(C)c1=O.O [THEOPHYLLINE]"
  Unit of measurement: "mg/dL"
  TC: 80.4
- Molecule: "Clc1ccccc1CN1CCc2sccc2C1 [TICLOPIDINE]"
  Unit of measurement: "mg/dL"
  TC: 70
- Molecule: "CSc1ccc2c(c1)N(CCC1CCCCN1C)c1ccccc1S2 (configuration not stated) [THIORIDAZINE]"
  Unit of measurement: "mg/dL"
  TC: 81.6
- Molecule: "CCc1cc(C(N)=S)ccn1 [ETHIONAMIDE]"
  Unit of measurement: "mg/dL"
  TC: 79.8
- Molecule: "COc1ccc(Cc2nccc3cc(OC)c(OC)cc23)cc1OC [PAPAVERINE]"
  Unit of measurement: "mg/dL"
  TC: 77
- Molecule: "CN(C)CCC=C1c2ccccc2CCc2ccccc21 [AMITRIPTYLINE]"
  Unit of measurement: "mg/dL"
  TC: 79.4
- Molecule: "NC(=O)N/N=C/c1ccc([N+](=O)[O-])o1 [NITROFURAZONE]"
  Unit of measurement: "mg/dL"
  TC: 82.2
- Molecule: "C[C@H](CS)C(=O)N1CCC[C@H]1C(=O)O [CAPTOPRIL]"
  Unit of measurement: "mg/dL"
  TC: 76.8
- Molecule: "O=C(O)c1cn(C2CC2)c2cc(N3CCNCC3)c(F)cc2c1=O [CIPROFLOXACIN]"
  Unit of measurement: "mg/dL"
  TC: 89
- Molecule: "CC(=O)Oc1ccccc1C(=O)O [ASPIRIN]"
  Unit of measurement: "mg/dL"
  TC: 74

---

species: Rattus norvegicus; experiment: Open TG-GATES - Regimen: Single; format: toxicity, organism-based, Sprague-Dawley; parameters: regimen Single, gender Male, age 6 weeks; conditions: in vivo, po, 100 mg/kg, 3 h, tissue Blood, route gavage, dose level Low
Consider the following compounds and their measured Mono readings.

- Compound: "O=C(O)c1cc(/N=N/c2ccc(S(=O)(=O)Nc3ccccn3)cc2)ccc1O"
  Unit of measurement: "%"
  Mono: 2.4
- Compound: "Clc1ccccc1CN1CCc2sccc2C1"
  Unit of measurement: "%"
  Mono: 2.8
- Compound: "C[C@H](CS)C(=O)N1CCC[C@H]1C(=O)O"
  Unit of measurement: "%"
  Mono: 4.8
- Compound: "O=C(O)c1cn(C2CC2)c2cc(N3CCNCC3)c(F)cc2c1=O"
  Unit of measurement: "%"
  Mono: 8.4
- Compound: "CCc1cc(C(N)=S)ccn1 [ETHIONAMIDE]"
  Unit of measurement: "%"
  Mono: 8.4

---

organism: Rattus norvegicus; assay: Open TG-GATES - Regimen: Single; format: toxicity, organism-based, Sprague-Dawley; set-up: regimen Single, gender Male, age 6 weeks; details: in vivo, po, 300 mg/kg, 3 h, tissue Kidney, route gavage, dose level Middle
Quantity measured: KIDNEY_TOTAL (g)

- Compound: "O=C(O)c1cc(/N=N/c2ccc(S(=O)(=O)Nc3ccccn3)cc2)ccc1O [SULFASALAZINE]"
  Unit of measurement: "g"
  Observed measurement: 1.9
- Compound: "CCc1cc(C(N)=S)ccn1 [ETHIONAMIDE]"
  Unit of measurement: "g"
  Observed measurement: 2.1
- Compound: "O=C(O)c1cn(C2CC2)c2cc(N3CCNCC3)c(F)cc2c1=O [CIPROFLOXACIN]"
  Unit of measurement: "g"
  Observed measurement: 1.7
- Compound: "Clc1ccccc1CN1CCc2sccc2C1 [TICLOPIDINE]"
  Unit of measurement: "g"
  Observed measurement: 1.9
- Compound: "C[C@H](CS)C(=O)N1CCC[C@H]1C(=O)O [CAPTOPRIL]"
  Unit of measurement: "g"
  Observed measurement: 2

---

Consider the following molecules and their measured MCV readings.
organism: Rattus norvegicus; assay: Open TG-GATES - Regimen: Single; format: toxicity, organism-based, Sprague-Dawley; design: regimen Single, gender Male, age 6 weeks; conditions: in vivo, po, 0 mg/kg, 3 h, tissue Blood, route gavage, dose level Control

- Molecule: "CSc1ccc2c(c1)N(CCC1CCCCN1C)c1ccccc1S2 (configuration not stated) [THIORIDAZINE]"
  MCV [fL]: 65.7
- Molecule: "NC(=O)N/N=C/c1ccc([N+](=O)[O-])o1 [NITROFURAZONE]"
  MCV [fL]: 67.7
- Molecule: "O=C(O)c1cn(C2CC2)c2cc(N3CCNCC3)c(F)cc2c1=O [CIPROFLOXACIN]"
  MCV [fL]: 65.5
- Molecule: "Clc1ccccc1CN1CCc2sccc2C1 [TICLOPIDINE]"
  MCV [fL]: 60.3
- Molecule: "CCc1cc(C(N)=S)ccn1 [ETHIONAMIDE]"
  MCV [fL]: 65.5
- Molecule: "C[C@H](CS)C(=O)N1CCC[C@H]1C(=O)O [CAPTOPRIL]"
  MCV [fL]: 64.5
- Molecule: "NC(=O)N1c2ccccc2C=Cc2ccccc21 [CARBAMAZEPINE]"
  MCV [fL]: 63.2
- Molecule: "COc1ccc(Cc2nccc3cc(OC)c(OC)cc23)cc1OC [PAPAVERINE]"
  MCV [fL]: 63.4
- Molecule: "CN(C)CCC=C1c2ccccc2CCc2ccccc21 [AMITRIPTYLINE]"
  MCV [fL]: 64.6
- Molecule: "O=C(O)c1cc(/N=N/c2ccc(S(=O)(=O)Nc3ccccn3)cc2)ccc1O [SULFASALAZINE]"
  MCV [fL]: 63.4
- Molecule: "Cn1c(=O)c2[nH]cnc2n(C)c1=O.O [THEOPHYLLINE]"
  MCV [fL]: 62.5
- Molecule: "CC(=O)Oc1ccccc1C(=O)O [ASPIRIN]"
  MCV [fL]: 60.8
